Biological target: Nectin-4 on MDA-MB-468 cells (human, UniProt Q96NY8 32-510)
Construct: whole, on cells; also called Nectin-4 (on-cell)
Sequence (looked up): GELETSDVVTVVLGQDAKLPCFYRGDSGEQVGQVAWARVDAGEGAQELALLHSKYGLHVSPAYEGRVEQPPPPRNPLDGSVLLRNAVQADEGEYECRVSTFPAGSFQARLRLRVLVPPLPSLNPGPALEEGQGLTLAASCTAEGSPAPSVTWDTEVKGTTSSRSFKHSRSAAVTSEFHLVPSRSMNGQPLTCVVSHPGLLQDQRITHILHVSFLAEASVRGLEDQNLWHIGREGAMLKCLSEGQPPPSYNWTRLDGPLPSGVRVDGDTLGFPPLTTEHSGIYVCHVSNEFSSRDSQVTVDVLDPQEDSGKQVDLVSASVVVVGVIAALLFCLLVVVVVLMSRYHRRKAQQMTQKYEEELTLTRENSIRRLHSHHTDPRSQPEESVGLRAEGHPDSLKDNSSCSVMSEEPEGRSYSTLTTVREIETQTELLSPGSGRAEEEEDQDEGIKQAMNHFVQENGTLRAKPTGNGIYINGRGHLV
Experiment: flow cytometry staining of MDA-MB-468 cells, anti-human IgG Fab Alexa Fluor 647 detection
RECORDED_METRIC: EC50 (pM)
# number only, unit pM dropped from output

Supply EC50 value. Item: Enfortumab-vedotin (PADCEV) (antibody)
10

Entry source: patent US20260014269A1
